biological target: yeast F1Fo ATP synthase (Saccharomyces cerevisiae, UniProt P00854+P61829); experiment: biochemical; details: F1Fo in bicelles; read-out: IC50, ATP hydrolysis, purified yeast F1Fo
pIC50: −log10 of the molar value.
assayMetric: pIC50

compound	targetDesc	pIC50
COc1nc2ccc(Br)cc2cc1[C@@H](c1ccccc1)[C@@](O)(CCN(C)C)c1cccc2ccccc12 [BDQ, Bedaquiline]	yeast F1Fo ATP synthase (Saccharomyces cerevisiae, UniProt P00854+P61829)	~7.60

Ask | Provide pIC50 value for the following compound: CC[C@@H]1/C=C/C=C/C[C@H](C)[C@@H](O)[C@](C)(O)C(=O)[C@H](C)[C@@H](O)[C@H](C)C(=O)[C@H](C)[C@@H](O)[C@H](C)/C=C/C(=O)O[C@H]2[C@@H](C)[C@@H](CC1)O[C@@]1(CC[C@@H](C)[C@@H](C[C@H](C)O)O1)[C@@H]2C [Oligomycin A]
Reply | ~7.00

* * *

target: yeast mitochondrial ATP synthase (yeast SMP) (Saccharomyces cerevisiae, UniProt P00854+P61829); assay: biochemical; conditions: IC50 ± SEM, ATP hydrolysis, yeast SMP
assayMetric: pIC50
Here pIC50 is given on a logarithmic scale as minus log10 of the concentration in mol/L.

Ask | Provide pIC50 value for the following compound: COc1nc2ccc(Br)cc2cc1[C@@H](c1ccccc1)[C@@](O)(CCN(C)C)c1cccc2ccccc12 [BDQ, Bedaquiline]
Reply | 5.89

* * *

Entries annotated with measured IC50
target: yeast F1Fo ATP synthase (Saccharomyces cerevisiae, UniProt P00854+P61829); experiment: biochemical; details: F1Fo in bicelles; n = 3; read-out: IC50 ± SEM, ATP hydrolysis, purified yeast F1Fo
Value expressed in nM; do not type the unit.

Ask | Provide IC50 value for the following molecule: `CC[C@@H]1/C=C/C=C/C[C@H](C)[C@@H](O)[C@](C)(O)C(=O)[C@H](C)[C@@H](O)[C@H](C)C(=O)[C@H](C)[C@@H](O)[C@H](C)/C=C/C(=O)O[C@H]2[C@@H](C)[C@@H](CC1)O[C@@]1(CC[C@@H](C)[C@@H](C[C@H](C)O)O1)[C@@H]2C`
Reply | 107

Ask | Provide IC50 value for the following molecule: `COc1nc2ccc(Br)cc2cc1[C@@H](c1ccccc1)[C@@](O)(CCN(C)C)c1cccc2ccccc12`
Reply | 27

* * *

target: yeast mitochondrial ATP synthase (yeast SMP) (Saccharomyces cerevisiae, UniProt P00854+P61829); assay: biochemical
assayMetric: pEC50
Here pEC50 is given on a logarithmic scale as minus log10 of the concentration in mol/L.

Ask | Provide pEC50 value for the following compound: `COc1nc2ccc(Br)cc2cc1[C@@H](c1ccccc1)[C@@](O)(CCN(C)C)c1cccc2ccccc12`
Reply | 5.89
